molecular target: Rap guanine nucleotide exchange factor 3 (Homo sapiens); test: Counterscreen qHTS for agonist of cAMP-regulated guanine nucleotide exchange factor 3 (EPAC1) (AID 1645889); conditions: EPAC1 Rap1B-BODIPY-GDP exchange, fluorescence; series mostly up to 154 µM; note: % of control where 0% means no effect; nearly all actives have a fitted effect of over 40% in size
Results filed as inconclusive are left out. Calls of active or inactive are those of the source. Calls come from the whole dose curve; as a rule, active = well fitted activation curve with a large enough effect; inconclusive = small, poorly fitted or top-dose-only effect, or another doubt; inactive = no such curve, though single readings can be large or run the other way.
measurement-label: activation

Use the examples below as a reference point.
COCC(=O)Oc1c(Sc2ccccc2[N+](=O)[O-])c(C)nn1C(C)(C)C ... inactive
CCOc1cc(C)c(-c2onc(C(F)(F)F)c2-c2csc(C)n2)c(O)c1 ... inactive
CC1Sc2ccc(C#N)cc2N(Cc2cccc(C(F)(F)F)c2)C1=O (configuration not stated) ... inactive
OC(c1cc(F)cc(Cl)c1)c1ncc(-c2cccc(C(F)(F)F)c2)[nH]1 (configuration not stated) ... 19.7% [at 30.8 µM] (inactive)
CC1=C(C(=O)OC2CCCCCC2)C(c2c(Cl)cccc2Cl)CC(=O)N1 (configuration not stated) ... inactive

Problem: What measured activation goes with `Cc1oc2ccc(O)c(CN(C)Cc3ccccc3)c2c1C(=O)Nc1cccc(C(F)(F)F)c1` ?
Solution: inactive

Problem: Entry under review: Cc1ccc(C2(c3noc(CN(C)CC4CCCCO4)n3)CCCC2)cc1 (configuration not stated) . Reported activation?
Solution: -0.372% [at 30.8 µM] (inactive)

Problem: Which value of activation has been reported for `CCCN(CCC)c1nc(-c2ccccn2)nc2ccccc12` in the records?
Solution: 0.395% [at 30.8 µM] (inactive)

Problem: activation for Cc1ccc(C2CC(c3cccs3)=NN2C(=O)c2ccco2)o1 (configuration not stated) ?
Solution: 16.2% [at 30.8 µM] (inactive)

Problem: What activation value was documented for this compound, Cc1[nH]n(-c2ncc(-c3ccccc3)s2)c(=O)c1C(c1ccc(Br)cc1)C(C#N)C#N (configuration not stated) ?
Solution: 8.62% [at 30.8 µM] (inactive)

Problem: Fill in the blank: the reported activation of CC(C)(C)c1ccc(C(=O)N2CCCC(c3nc4c(nnn4Cc4cccc(F)c4)c(=O)[nH]3)C2)cc1 (configuration not stated) is ____.
Solution: inactive

Problem: Request the reported activation associated with COc1cccc(C2CC(c3cccs3)=NN2C(=O)c2ccco2)c1O (configuration not stated)
Solution: 8.43% [at 30.8 µM] (inactive)

Problem: For the compound shown here, `O=C(O)c1cc(-c2ccc(/C=C3/SC(=S)N(Cc4ccccc4)C3=O)o2)ccc1Cl` , give the reported activation.
Solution: 7.37% [at 30.8 µM] (inactive)

Problem: // lookup activation for `CCN(CC)CC#CCOC(c1ccccc1)c1ccccc1`
Solution: inactive

Problem: Requested read-out: activation. Entry: `COc1cc(/C=C(\C#N)c2nc3ccccc3s2)cc([N+](=O)[O-])c1O`
Solution: inactive

Problem: Entry `Cc1ccc(CNC(=O)COc2ccc(C(=O)c3ccc(F)cc3)cc2)cc1` : reported activation = ?
Solution: inactive
